- Read-out: Interleukin-8 (IL8), CXCL8 (gene 3576)
- protocol details: BSK_3C_IL8: BioMAP Diversity Plus: 3C Assay for Interleukin-8 (IL8) Biomarker Activity (AID 2283020)
- experimental context: primary human endothelial cells (HUVEC); actives raise or lower the signal
Active and inactive are the calls of the source. How the source made its calls: active means hit-call score of the fitted dose curve at least 0.9, where 1 is the maximum; inactive means score below 0.9.
Classes used: active, inactive

{"columns": ["molecule", "qualitative label"],
 "data": [
  ["CCCc1ccccc1", "inactive"],
  ["CCCCCCCCCC", "inactive"],
  ["COc1cc(C(C)C)c2c(c1)S(=O)(=O)N(COc1cc(=O)n3cccc(OCCN4CCCCC4)c3n1)C2=O", "inactive"],
  ["NC(=O)N1c2ccccc2C=Cc2ccccc21", "inactive"],
  ["O=C(O)c1ccc2c(c1)nc(C(=O)NC1CCN(C3CC3)CC1)n2Cc1cc(-c2ccc(Cl)s2)on1", "inactive"],
  ["NC(=O)N(O)[C@@H]1COc2cc(OCc3ccccc3)ccc21", "inactive"],
  ["CCc1ccc(O)c(C(C)(C)C)c1", "active"],
  ["C[C@@H](Oc1ccc(CNC(=O)c2cccnc2Oc2ccc3c(c2)OCO3)c(F)c1)C(=O)O", "inactive"],
  ["CCCCC(CC)C(=O)OCCOCCOCCOC(=O)C(CC)CCCC (stereo unspecified)", "inactive"],
  ["CC[C@H](C)C(=O)O[C@H]1C[C@H](O)C=C2C=C[C@H](C)[C@H](CC[C@@H](O)C[C@@H](O)CC(=O)O)[C@H]21", "inactive"],
  ["c1ccc(C(O[C@@H]2CCCN(CCc3ccc4c(c3)OCO4)C2)c2ccccc2)cc1", "active"],
  ["CCCCCCCCCCCCCCCCOS(=O)(=O)O", "inactive"],
  ["O=S(=O)(O)c1ccc(N=Nc2c(O)ccc3cc(S(=O)(=O)O)ccc23)cc1", "inactive"],
  ["CC(C)CCCCCCOC(=O)C1CCCCC1C(=O)OCCCCCCC(C)C (stereo unspecified)", "inactive"],
  ["FC(F)(F)C(F)(F)C(F)(F)C(F)(F)C(F)(F)C(F)(F)I", "inactive"],
  ["O=C(Cl)C(F)(F)C(F)(F)C(F)(F)C(=O)Cl", "inactive"],
  ["CCCCCCCC/C=C\\CCCCCCCC(=O)OC[C@@H](O)[C@H]1OC[C@H](O)[C@H]1O", "inactive"],
  ["Cn1cc[nH]c1=S", "inactive"],
  ["OCCC(F)(F)C(F)(F)C(F)(F)C(F)(F)F", "inactive"],
  ["CCCCN1C(=O)[C@@H]([C@H](O)C2CCCCC2)NC(=O)C12CCN(Cc1ccc(Oc3ccc(C(=O)O)cc3)cc1)CC2", "inactive"],
  ["Cc1nccn1-c1ccc(Sc2cccc(C3(C(N)=O)CCOCC3)c2)cc1", "active"]
]}
